Recorded values, source ChEMBL document CHEMBL4190370.

assay protocol: Half life in human
Assay type: ADME, organism-based
cond: in vivo
measured endpoint: half-life (h)
Provide the reading as a plain figure in h.

Enquiry: Supply reported half-life belonging to this compound: C=C1C[C@H](N)[C@H](C(=O)O)C1 [ICOFUNGIPEN]
Return: 7

###

assay protocol: Oral bioavailability in rat
Assay type: ADME, organism-based
cond: in vivo
measured endpoint: bioavailability (%)
Provide the reading as a plain figure in %.

Enquiry: Supply reported bioavailability belonging to this molecule: C=C1C[C@H](N)[C@H](C(=O)O)C1
Return: 100
